Biological target: GDP-bound KRAS wild-type protein (Homo sapiens, UniProt P01116)
Sequence (P01116 whole entry): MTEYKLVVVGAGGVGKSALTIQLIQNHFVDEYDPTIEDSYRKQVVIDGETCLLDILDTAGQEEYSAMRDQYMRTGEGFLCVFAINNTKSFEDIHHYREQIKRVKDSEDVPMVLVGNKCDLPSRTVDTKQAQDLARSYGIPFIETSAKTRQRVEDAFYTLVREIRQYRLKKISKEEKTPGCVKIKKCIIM
Assay: Binding to KRAS by surface plasmon resonance (SPR), Single Cycle Kinetics
Details: SPR, Single Cycle Kinetics, 1:1 binding model; GDP-bound KRAS wild-type protein; read-out: KRAS KD
Listing: Kd of selected molecules
A number alone suffices; assume nM.

SUBSTANCE_SMILES: CC[C@H](C)[C@@H]1NC(=O)[C@H](C)N(C)C(=O)C[C@@H](C(=O)N(C)C)N(C)C(=O)[C@H](C2CCCC2)N(C)C(=O)C2(CCC2)NC(=O)[C@@H]2CCCN2C(=O)[C@H](CCc2cc(F)c(C(F)(F)F)c(F)c2)NC(=O)CN(C)C(=O)[C@H](Cc2ccc(C(F)(F)F)cc2)N2CC/C=C\C[C@@H](C2=O)N(C)C(=O)CN(C)C1=O
MEASUREMENT_TARGET: GDP-bound KRAS wild-type protein (Homo sapiens, UniProt P01116)
TEST_VALUE: 0.054

For the next question, use this molecule.
Exercise: Provide measured Kd value, entry: CCO[C@@H]1C[C@H]2C(=O)NC3(CCC3)C(=O)N(C)[C@@H](C3CCCC3)C(=O)N(C)[C@H](C(=O)N(C)CCOC)CC(=O)N(C)[C@@H](CC3CC3)C(=O)N[C@@H]([C@@H](C)CC)C(=O)N(C)CC(=O)N(C)[C@H]3C/C=C\CCN(C3=O)[C@@H](Cc3ccc(C(F)(F)F)cc3)C(=O)N(C)CC(=O)N[C@@H](CCc3ccc(C(F)(F)F)c(OC)c3)C(=O)N2C1
Key: 0.11

All values here come from patent US20240158446A1.
